# tested.target: HLA-B*27:05
# assay: IEDB peptide-MHC binding, purified MHC/direct/fluorescence; filed as Kd, often an IC50 or EC50 that approximates it; bounds were set here for any values at or beyond the usual limits of such assays
# test.settings: source organism: Brucella suis
test.readout: Kd (nM)
The response must be a number in nM with no trailing unit.

Query string: I'd like to know its Kd. The sequence in question is RRTKLPLTK
Result string: 79.2

====

# tested.target: HLA-A*30:01
# assay: IEDB peptide-MHC binding, purified MHC/competitive/fluorescence; filed as Kd, often an IC50 or EC50 that approximates it; bounds were set here for any values at or beyond the usual limits of such assays
# test.settings: source organism: Cryptosporidium parvum Iowa II
pKd: −log10 of the molar value.
test.readout: pKd

Query string: I'd like to know its pKd. The sequence in question is TVFRNQNRV
Result string: ≤ 5.30

====

# tested.target: HLA-A*02:19
# assay: IEDB peptide-MHC binding, purified MHC/direct/fluorescence; filed as Kd, often an IC50 or EC50 that approximates it; bounds were set here for any values at or beyond the usual limits of such assays
# test.settings: source organism: Entamoeba histolytica HM-1:IMSS
test.readout: Kd

Query string: I'd like to know its Kd. The sequence in question is IESNPLFPV
Result string: ≥ 20 µM

====

# tested.target: HLA-A*30:01
# assay: IEDB peptide-MHC binding, purified MHC/competitive/radioactivity; filed as Kd, often an IC50 or EC50 that approximates it; bounds were set here for any values at or beyond the usual limits of such assays
# test.settings: source organism: Lassa virus Josiah
test.readout: Kd (µM)
The response must be a number in µM with no trailing unit.

Query string: I'd like to know its Kd. The sequence in question is CWLVSNGSY
Result string: 16.9

====

# tested.target: HLA-A*32:01
# assay: IEDB peptide-MHC binding, purified MHC/competitive/radioactivity; filed as Kd, often an IC50 or EC50 that approximates it; bounds were set here for any values at or beyond the usual limits of such assays
# test.settings: source organism: Mammarenavirus machupoense
test.readout: Kd

Query string: I'd like to know its Kd. The sequence in question is CTNFKTQLV
Result string: ≥ 77.8 µM

Query string: I'd like to know its Kd. The sequence in question is YKELCDAVY
Result string: ≥ 77.8 µM

====

# tested.target: HLA-A*11:01
# assay: IEDB peptide-MHC binding, purified MHC/direct/fluorescence; filed as Kd, often an IC50 or EC50 that approximates it; bounds were set here for any values at or beyond the usual limits of such assays
# test.settings: source organism: Klebsiella pneumoniae
pKd: −log10 of the molar value.
test.readout: pKd

Query string: I'd like to know its pKd. The sequence in question is LLQEKYGLI
Result string: ≤ 4.70

====

# tested.target: HLA-A*26:01
# assay: IEDB peptide-MHC binding, purified MHC/direct/fluorescence; filed as Kd, often an IC50 or EC50 that approximates it; bounds were set here for any values at or beyond the usual limits of such assays
# test.settings: source organism: Mycobacterium tuberculosis F11
pKd: −log10 of the molar value.
test.readout: pKd

Query string: I'd like to know its pKd. The sequence in question is KPKLARGEL
Result string: ≤ 4.70

====

# tested.target: HLA-B*51:01
# assay: IEDB peptide-MHC binding, purified MHC/competitive/fluorescence; filed as Kd, often an IC50 or EC50 that approximates it; bounds were set here for any values at or beyond the usual limits of such assays
# test.settings: source organism: Yersinia pestis Antiqua
test.readout: pKd
// pKd is dimensionless: -log10 of concentration (M)

Query string: Tell me reported pKd for EAKLFFQVI , tested with HLA-B*51:01.
Result string: 6.14
